system: 966289-007-R4-J1-PDC complex spheroid viability; assay: Anticancer human tumor 966289-007-R4-J1-PDC patient-derived pancreatic adenocarcinoma cell line growth inhibition [GQUAD]; conditions: second compound 10 µM; first compound 0.1 µM; active = viability on the fitted dose curve at most 10% of control; inactive = the rest;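 also: spheroids exposed to the agents for seven days before readout; percent viability relative to DMSO vehicle control wells taken as 100%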
Labels: true (1) for active, false (0) for inactive

INSERT INTO measurements (molecule, cat) VALUES
  ('CC1COCCN1c1cc(-c2ccnn2C)c2ccnc(-c3ccn[nH]3)c2n1 (stereo unspecified) + Cc1[nH]c2ccc(F)cc2c1-c1nc2c3cccnc3c3ncccc3c2[nH]1', 'false (0)'),
  ('O=C(c1cc(Cc2n[nH]c(=O)c3ccccc23)ccc1F)N1CCN(C(=O)C2CC2)CC1 + CN(C)c1ccc(Nc2c3ccc(NC(=O)CCN4CCCC4)cc3nc3cc(NC(=O)CCN4CCCC4)ccc23)cc1', 'false (0)'),
  ('CC1COCCN1c1cc(C2(O)CC3CCC(C2)O3)c2cnn(-c3ccn[nH]3)c2n1 (stereo unspecified) + Cc1cnc(CNC(=O)c2c(=O)c3ccc(N4CCCN(C)CC4)nc3n3c2sc2ccccc23)cn1', 'true (1)'),
  ('COc1cccc2c1C(=O)c1c(O)c3c(c(O)c1C2=O)CC(O)(C(=O)CO)CC3OC1CC(N)C(O)C(C)O1 (stereo unspecified) + CN(C)c1ccc(Nc2c3ccc(NC(=O)CCN4CCCC4)cc3nc3cc(NC(=O)CCN4CCCC4)ccc23)cc1', 'false (0)'),
  ('COc1ccc([C@@H](O)c2cc(-c3ncnc4cc(N5CCOCC5)ccc34)c(F)cc2Cl)nn1 + Cc1[nH]c2ccc(F)cc2c1-c1nc2c3cccnc3c3ncccc3c2[nH]1', 'false (0)'),
  ('O=c1[nH]cc(F)c(=O)[nH]1 + Cc1[nH]c2ccc(F)cc2c1-c1nc2c3cccnc3c3ncccc3c2[nH]1', 'false (0)'),
  ('COc1ccc([C@@H](O)c2cc(-c3ncnc4cc(N5CCOCC5)ccc34)c(F)cc2Cl)nn1 + Cc1cnc(CNC(=O)c2c(=O)c3ccc(N4CCCN(C)CC4)nc3n3c2sc2ccccc23)cn1', 'true (1)'),
  ('COc1ncnc(C2CC2)c1-c1ncc2cnn(Cc3ccc(-c4nc(C(F)(F)F)cn4C(C)C)cc3)c2n1 + Cc1cnc(CNC(=O)c2c(=O)c3ccc(N4CCCN(C)CC4)nc3n3c2sc2ccccc23)cn1', 'true (1)'),
  ('C=CCn1c(=O)c2cnc(Nc3ccc(N4CCN(C)CC4)cc3)nc2n1-c1cccc(C(C)(C)O)n1 + Cc1[nH]c2ccc(F)cc2c1-c1nc2c3cccnc3c3ncccc3c2[nH]1', 'false (0)'),
  ('C=CC(=O)N1CCN(c2nc(=O)n(-c3c(C)ccnc3C(C)C)c3nc(-c4c(O)cccc4F)c(F)cc23)C(C)C1 (stereo unspecified) + Cc1[nH]c2ccc(F)cc2c1-c1nc2c3cccnc3c3ncccc3c2[nH]1', 'false (0)'),
  ('CC1COCCN1c1cc(C2(S(C)(=N)=O)CC2)nc(-c2ccnc3[nH]ccc23)n1 (stereo unspecified) + Cc1cnc(CNC(=O)c2c(=O)c3ccc(N4CCCN(C)CC4)nc3n3c2sc2ccccc23)cn1', 'true (1)');

Hey, just so you know, these numbers are from PubChem BioAssay AID2060488.
